test: Selectivity index, ratio of CC50 for human TZM-bl cells to IC50 for IC50 for antiviral activity against HIV-1 89.6 infected in human TZM-bl cells; assay type: toxicity, cell-based; details: read-out: Ratio CC50/IC50
measure_name: selectivity ratio
No unit in the answer, please; the number alone is enough.

# annotated cases, reported selectivity ratio shown
# item_smiles, measured
rows = [
    ("CC(C)C[C@H](NC(=O)CCCCCCCNC(=O)[C@]12CCC(C)(C)C[C@H]1C1=CC[C@@H]3[C@@]4(C)CC[C@H](O)C(C)(C)[C@@H]4CC[C@@]3(C)[C@]1(C)CC2)[C@@H](O)CC(=O)O", 99),
    ("C=C(C)[C@@H]1CC[C@]2(C(=O)NCCCCCCCC(=O)N[C@@H](CC(C)C)[C@@H](O)CC(=O)O)CC[C@]3(C)[C@H](CC[C@@H]4[C@@]5(C)CC[C@H](O)C(C)(C)[C@@H]5CC[C@]43C)[C@@H]12", 100),
]

Could you now consider this next compound?
Ask | If you can, please state the reported selectivity ratio value of `C=C(C)[C@@H]1CC[C@]2(C(=O)NCCCCCCCC(=O)N[C@@H](CC(C)C)[C@H](O)CC(=O)O)CC[C@]3(C)[C@H](CC[C@@H]4[C@@]5(C)CC[C@H](O)C(C)(C)[C@@H]5CC[C@]43C)[C@@H]12` .
Reply | 45

* * *

# CC50 listing for each entry below
experiment: Cytotoxicity against human TZM-bl cells assessed as reduction in cell viability by CellTitre-Glo assay; format: toxicity, cell-based
The answer is to be given in µM; state only the numeric part.

# item_smiles, measured
rows = [
    ("CC(C)C[C@H](NC(=O)CCCCCCCNC(=O)[C@]12CCC(C)(C)C[C@H]1C1=CC[C@@H]3[C@@]4(C)CC[C@H](O)C(C)(C)[C@@H]4CC[C@@]3(C)[C@]1(C)CC2)[C@@H](O)CC(=O)O", 78),
]

Now take the following compound into account.
Ask | Reported CC50, compound `C=C(C)[C@@H]1CC[C@]2(C(=O)NCCCCCCCC(=O)N[C@@H](CC(C)C)[C@H](O)CC(=O)O)CC[C@]3(C)[C@H](CC[C@@H]4[C@@]5(C)CC[C@H](O)C(C)(C)[C@@H]5CC[C@]43C)[C@@H]12` : ____
Reply | 8.9
